Record form. Attribute: PK CLpo. Fill in for each entry.
- PROCEDURE TEXT: Animal PK study in mouse via i.v., p.o. and s.c. administration
- Type: in vivo
- ASSAY CONDITIONS: p.o.
Answers are plain numbers, in mL/min/kg.

Answered examples (4):
- COMPOUND: "C[C@H](NC(=O)Nc1ccc(S(=O)(=O)Cc2ccc3c(c2)CCNC3)cc1)c1cccc(Cl)c1Cl"
  MEASURED ENDPOINT: "PK CLpo"
  READOUT UNITS: "mL/min/kg"
  READOUT VALUE: 1428
- COMPOUND: "CC(NC(=O)Nc1ccc(S(=O)(=O)Cc2ccc3c(c2)CNC3)cc1)c1cccc2ccccc12.Cl (centres unmarked)"
  MEASURED ENDPOINT: "PK CLpo"
  READOUT UNITS: "mL/min/kg"
  READOUT VALUE: 1792
- COMPOUND: "C[C@H](NC(=O)Nc1ccc(S(=O)(=O)Nc2ccc3c(c2)CCNC3)cc1)c1cccc(Cl)c1Cl.Cl"
  MEASURED ENDPOINT: "PK CLpo"
  READOUT UNITS: "mL/min/kg"
  READOUT VALUE: 3732
- COMPOUND: "CCOC(=O)N1CCc2cc(NS(=O)(=O)c3ccc(NC(=O)N[C@@H](C)c4cccc(Cl)c4Cl)cc3)ccc2C1"
  MEASURED ENDPOINT: "PK CLpo"
  READOUT UNITS: "mL/min/kg"
  READOUT VALUE: 898

Could you tell me PK CLpo for each of these compounds? They are listed below.
1. CC(NC(=O)Nc1ccc(S(=O)(=O)Cc2ccc3c(c2)CN(CC2CC2)C3)cc1)c1ccccc1 (centres unmarked)
2. Cl.O=C(NCc1cccc(Cl)c1Cl)Nc1ccc(S(=O)(=O)Cc2ccc3c(c2)CNC3)cc1
3. COc1ccc([C@H](C)NC(=O)Nc2ccc(S(=O)(=O)Cc3ccc4c(c3)CCN(C(C)=O)C4)cc2)c(Cl)c1Cl
4. CC(NC(=O)Nc1ccc(S(=O)(=O)Cc2ccc3c(c2)CN(C)C3)cc1)c1ccccc1 (centres unmarked)

*A*
1. 1030
2. 1371
3. 514.8
4. 380
